# Measured target: D3R (Homo sapiens)
# Assay protocol: D3R radioligand binding assay ([125I]IABN, HEK cells)
# Parameters: expressed in transfected cells
# Measurement setup: human D3 expressed in HEK cells, [125I]IABN radioligand, at least three experiments, HCl salts; read-out: Ki ± SEM D3R
pKi: −log10 of the molar value.
Measured metric: pKi

Look over these answered cases.
C=CCN1C[C@H](OC(=O)NCCCCCCCCc2cccs2)C[C@@H]1CNC(=O)c1cc(CCCF)cc(OC)c1OC [(R,R)-cis-2i] ... 6.14
C=CCN1C[C@@H](OC(=O)NCCCCCCCCCC)C[C@H]1CNC(=O)c1cc(CCCF)cc(OC)c1OC [(S,S)-cis-2d] ... 6.55

(I) C=CCN1C[C@@H](OC(=O)NCCCCCCCCc2cccs2)C[C@@H]1CNC(=O)c1cc(CCCF)cc(OC)c1OC [(S,R)-trans-2i]
(II) C=CCN1C[C@@H](OC(=O)NCCCCCCCCc2cccs2)C[C@H]1CNC(=O)c1cc(CCCF)cc(OC)c1OC [(S,S)-cis-2i]
(III) C#CCOCCOCCNC(=O)O[C@@H]1C[C@@H](CNC(=O)c2cc(CCCF)cc(OC)c2OC)N(CC=C)C1 [(R,S)-trans-2g]
q: Rank order required: pKi, descending. Reply: labels, ordered per the request.
a: III, II, I

* * *

# Measured target: D3R (Homo sapiens, UniProt P35462)
# Sequence (P35462 whole entry): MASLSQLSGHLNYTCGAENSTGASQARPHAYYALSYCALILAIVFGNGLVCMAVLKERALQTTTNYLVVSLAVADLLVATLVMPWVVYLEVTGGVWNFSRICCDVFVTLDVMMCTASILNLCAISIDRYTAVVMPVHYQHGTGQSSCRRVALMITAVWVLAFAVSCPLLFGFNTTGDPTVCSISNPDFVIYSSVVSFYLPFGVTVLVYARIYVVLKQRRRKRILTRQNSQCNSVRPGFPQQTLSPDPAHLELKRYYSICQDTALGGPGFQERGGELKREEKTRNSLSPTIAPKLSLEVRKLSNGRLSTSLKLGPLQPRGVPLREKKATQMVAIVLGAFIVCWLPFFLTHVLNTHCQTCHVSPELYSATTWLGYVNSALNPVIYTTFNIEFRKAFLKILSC
# Assay protocol: D3R radioligand binding assay ([125I]IABN, HEK cells)
# Parameters: expressed in transfected cells
# Measurement setup: human D3 expressed in HEK cells, [125I]IABN radioligand, at least three experiments, HCl salts; read-out: Ki ± SEM D3R
Measured metric: Ki (nM)

Look over these answered cases.
C=CCN1C[C@H](OC(=O)NCCCC)C[C@H]1CNC(=O)c1cc(CCCF)cc(OC)c1OC [(R,S)-trans-2a] ... 2.6
C=CCN1C[C@H](OC(=O)NCCCCCCCCCC)C[C@H]1CNC(=O)c1cc(CCCF)cc(OC)c1OC [(R,S)-trans-2d] ... 2.8

(a) C=CCN1C[C@H](OC(=O)NCCCCCCCCc2ccsc2)C[C@H]1CNC(=O)c1cc(CCCF)cc(OC)c1OC [(R,S)-trans-2j]
(b) C=CCN1C[C@H](OC(=O)NCCOCCOCCOCCOC)C[C@H]1CNC(=O)c1cc(CCCF)cc(OC)c1OC [(R,S)-trans-2f]
q: Between a and b , which one shows the larger Ki value? Your choice should be expressed through its label.
a: b

* * *

# Measured target: human D2 (Homo sapiens, UniProt P14416)
# Sequence (P14416 whole entry): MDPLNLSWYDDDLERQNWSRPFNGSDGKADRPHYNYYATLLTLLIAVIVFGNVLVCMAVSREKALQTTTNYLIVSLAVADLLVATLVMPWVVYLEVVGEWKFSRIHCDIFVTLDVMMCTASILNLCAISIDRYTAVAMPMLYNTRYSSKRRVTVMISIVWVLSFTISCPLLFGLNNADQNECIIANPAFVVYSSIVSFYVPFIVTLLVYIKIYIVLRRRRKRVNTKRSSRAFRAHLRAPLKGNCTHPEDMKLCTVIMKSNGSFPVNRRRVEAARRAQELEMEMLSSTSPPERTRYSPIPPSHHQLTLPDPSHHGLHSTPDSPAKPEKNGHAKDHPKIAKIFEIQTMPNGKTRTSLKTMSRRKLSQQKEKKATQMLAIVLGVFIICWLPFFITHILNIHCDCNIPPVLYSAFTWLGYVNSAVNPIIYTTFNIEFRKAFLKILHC
# Assay protocol: D2R radioligand binding assay ([125I]IABN, HEK cells)
# Measurement setup: human D2 expressed in HEK cells, [125I]IABN radioligand, at least three experiments, HCl salts; read-out: Ki ± SEM D2R
pKi: −log10 of the molar value.
Measured metric: pKi

Look over these answered cases.
C=CCN1C[C@@H](OC(=O)NCCCCCCCCc2cccs2)C[C@H]1CNC(=O)c1cc(CCCF)cc(OC)c1OC [(S,S)-cis-2i] ... 7.17
C=CCN1C[C@H](OC(=O)NCCCCCCc2cccs2)C[C@H]1CNC(=O)c1cc(CCCF)cc(OC)c1OC [(R,S)-trans-2h] ... 8.41
C#CCOCCOCCNC(=O)O[C@@H]1C[C@@H](CNC(=O)c2cc(CCCF)cc(OC)c2OC)N(CC=C)C1 [(R,S)-trans-2g] ... 8.05
C=CCN1C[C@H](OC(=O)NCCCCCCCC)C[C@H]1CNC(=O)c1cc(CCCF)cc(OC)c1OC [(R,S)-trans-2c] ... 7.80
C=CCN1C[C@H](OC(=O)NCCCCCC)C[C@H]1CNC(=O)c1cc(CCCF)cc(OC)c1OC [(R,S)-trans-2b] ... 8.26

(P) C=CCN1C[C@@H](OC(=O)NCCCCCCCCCC)C[C@H]1CNC(=O)c1cc(CCCF)cc(OC)c1OC [(S,S)-cis-2d]
(Q) C=CCN1C[C@@H](OC(=O)NCCCCCCCCCC)C[C@@H]1CNC(=O)c1cc(CCCF)cc(OC)c1OC [(S,R)-trans-2d]
q: Lowest pKi? choose P or Q Your choice should be expressed through its label.
a: Q
